molecular target: human PD-L1 (human) (UniProt Q9NZQ7); assay: flow cytometry; PD-L1 MFI over CD28 MFI of the same protein
Sequence (Q9NZQ7 19-290): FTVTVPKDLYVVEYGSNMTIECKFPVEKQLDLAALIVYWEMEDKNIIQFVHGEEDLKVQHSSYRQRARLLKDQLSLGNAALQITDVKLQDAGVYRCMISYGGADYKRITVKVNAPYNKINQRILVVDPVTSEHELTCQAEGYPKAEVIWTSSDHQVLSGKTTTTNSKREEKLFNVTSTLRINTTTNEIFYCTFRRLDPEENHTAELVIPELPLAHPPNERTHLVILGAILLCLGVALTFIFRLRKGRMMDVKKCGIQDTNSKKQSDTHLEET
ASSAY READOUT: Ratio of PDL1:CD28

Please review the following examples before continuing.
BINDER	ASSAY READOUT	NUMERIC READOUT
variant CD80 IgV-Fc M47L (Fc fusion) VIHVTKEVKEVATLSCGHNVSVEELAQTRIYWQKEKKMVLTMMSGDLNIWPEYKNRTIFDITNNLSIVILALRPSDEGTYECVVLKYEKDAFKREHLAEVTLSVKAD	Ratio of PDL1:CD28	6.1
variant CD80 IgV-Fc E35D/N48K (Fc fusion) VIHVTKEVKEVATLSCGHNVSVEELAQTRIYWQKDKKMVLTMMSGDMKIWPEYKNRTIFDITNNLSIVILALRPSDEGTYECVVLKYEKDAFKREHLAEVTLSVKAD	Ratio of PDL1:CD28	33.7

a: variant CD80 IgV-Fc E35D/N48K/K89N (Fc fusion) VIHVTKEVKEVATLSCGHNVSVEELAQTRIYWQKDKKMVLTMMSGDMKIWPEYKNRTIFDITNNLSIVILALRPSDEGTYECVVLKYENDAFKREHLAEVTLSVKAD
b: variant CD80 IgV-Fc E35D/M47V/V68M/L85Q/K89N (Fc fusion) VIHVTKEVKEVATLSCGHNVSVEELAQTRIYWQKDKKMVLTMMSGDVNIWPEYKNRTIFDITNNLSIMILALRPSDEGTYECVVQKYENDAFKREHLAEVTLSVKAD
query: Lowest Ratio of PDL1:CD28? choose a or b Provide the label of your selected option as the answer.
result: a
(a: 14, b: 49.1)
